All values here come from patent US20180271873A1.

Below is a list of entries, each paired with its recorded pEC50 value.
tested on: GFP-expressing Zaire Ebolavirus Mayinga-GFP; experiment: microbe, parasite or virus in culture; type: cell-based; conditions: HeLa, read-out: Activity (Biological activity, EC50)
pEC50: −log10 of the molar value.

Below are worked cases with known answers.
compound	pEC50
Cc1cccc(/C=N/Nc2cc(N3CCOCC3)nc(OCCc3cnccn3)n2)c1	4.30 to 6.00
Cc1cccc(/C=N/Nc2cc(N3CCOCC3)nc(OCCc3ncccn3)n2)c1	> 6.00
Cc1cccc(/C=N/Nc2cc(N3CCOCC3)nc(NCc3ccccn3)n2)c1	> 6.00
Cc1cccc(/C=N/Nc2cc(N3CCCCC3)nc(OCCc3ccccn3)n2)c1	< 4.30
Cc1cnc(COc2nc(N/N=C/c3cccc(C)c3)cc(N3CCOCC3)n2)nc1	> 6.00

Input: Requested field: pEC50. Item: COc1cnc(COc2nc(N/N=C/c3cccc(C)c3)cc(N3CCOCC3)n2)nc1
Output: > 6.00

Input: Requested field: pEC50. Item: Cc1ccccc1/C=N/Nc1cc(N2CCOCC2)nc(OCCc2ccccn2)n1
Output: > 6.00

Input: Requested field: pEC50. Item: Cc1cccc(/C=N/Nc2cc(N3CCOCC3)nc(OCC(C)c3ccccn3)n2)c1 (stereo not shown)
Output: > 6.00

Input: Requested field: pEC50. Item: Cc1cccc(/C=N/Nc2nc(OCCc3ccccn3)nc(N3CCOCC3)c2C#N)c1
Output: < 4.30

Input: Requested field: pEC50. Item: Cc1cccc(/C=N/Nc2cc(N3CCOCC3)nc(OCc3ncccn3)n2)c1
Output: > 6.00
